Details: synthetic melanin, 0.06 to 25.0μM, 37°C, 1 hour, ± SEM
recorded_metric: Kd
Respond with a number, then the unit of measure.

Lookup: Recorded Kd for CCN(CC)CCCC(C)Nc1ccnc2cc(Cl)ccc12 (stereo not shown) , please?
Found: 3.06 µM

###

Target: VEGFR3 (Homo sapiens)
Construct: purchased Millipore Corporation (Dundee, Scotland) or Reaction Biology Corporation (contract assay)
Sequence (P35916 25-1363): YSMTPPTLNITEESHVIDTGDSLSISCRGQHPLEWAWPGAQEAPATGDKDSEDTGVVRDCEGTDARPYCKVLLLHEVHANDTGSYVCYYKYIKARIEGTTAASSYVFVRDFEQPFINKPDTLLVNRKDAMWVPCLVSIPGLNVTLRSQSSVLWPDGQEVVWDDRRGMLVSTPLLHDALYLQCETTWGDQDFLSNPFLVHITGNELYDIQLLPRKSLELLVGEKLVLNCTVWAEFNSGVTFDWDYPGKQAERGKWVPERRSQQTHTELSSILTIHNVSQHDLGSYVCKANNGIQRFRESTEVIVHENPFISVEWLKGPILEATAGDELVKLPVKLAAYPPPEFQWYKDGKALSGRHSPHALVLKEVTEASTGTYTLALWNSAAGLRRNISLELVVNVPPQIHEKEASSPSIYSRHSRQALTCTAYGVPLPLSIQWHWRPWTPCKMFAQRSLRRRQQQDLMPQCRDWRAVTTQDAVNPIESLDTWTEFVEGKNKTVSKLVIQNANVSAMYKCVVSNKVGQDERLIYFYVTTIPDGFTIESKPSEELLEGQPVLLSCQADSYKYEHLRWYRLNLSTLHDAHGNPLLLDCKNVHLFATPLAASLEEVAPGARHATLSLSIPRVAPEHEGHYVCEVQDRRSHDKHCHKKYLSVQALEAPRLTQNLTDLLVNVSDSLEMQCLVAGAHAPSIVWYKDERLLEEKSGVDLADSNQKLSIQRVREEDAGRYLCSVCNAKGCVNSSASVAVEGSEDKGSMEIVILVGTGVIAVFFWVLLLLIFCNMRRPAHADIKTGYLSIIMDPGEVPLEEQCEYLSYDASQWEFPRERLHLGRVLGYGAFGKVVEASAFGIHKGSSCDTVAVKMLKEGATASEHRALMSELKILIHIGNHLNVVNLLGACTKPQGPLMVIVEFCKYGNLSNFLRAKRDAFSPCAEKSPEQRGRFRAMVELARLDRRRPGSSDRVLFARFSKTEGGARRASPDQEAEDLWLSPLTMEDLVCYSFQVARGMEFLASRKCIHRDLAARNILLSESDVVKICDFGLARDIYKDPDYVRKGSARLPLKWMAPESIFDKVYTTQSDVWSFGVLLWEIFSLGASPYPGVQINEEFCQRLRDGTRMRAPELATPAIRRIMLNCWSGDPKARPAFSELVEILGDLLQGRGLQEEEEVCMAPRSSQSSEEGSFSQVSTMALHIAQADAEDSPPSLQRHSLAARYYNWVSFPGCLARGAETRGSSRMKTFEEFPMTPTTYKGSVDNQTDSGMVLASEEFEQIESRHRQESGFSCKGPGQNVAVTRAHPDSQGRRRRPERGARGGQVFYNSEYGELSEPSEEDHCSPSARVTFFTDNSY
Test: Ten-dose IC50 measurement
Type: biochemical
Details: 10μM ATP, S1 Dataset; read-out: IC50 VEGFR3
recorded_metric: IC50
Please answer in the form of a number followed by its unit of measurement.

Lookup: So what's the measured IC50 for this one? Cc1[nH]c(/C=C2\C(=O)Nc3ccc(F)cc32)c(C)c1C(=O)N[C@H]1CCN(C(=O)N(C)C)C1 [Vorolanib]
Found: 33.9 nM
